Value source: patent US20240124585A1

target: T1, human CD3 on T-cell lines (CD3-expressing Jurkat cells; HUT78 cells) (human, UniProt P07766 23-207); assay: flow cytometry, HUT78 cells
T1 construct: On cells it stands in the CD3/TCR complex
T1 sequence (P07766 23-207 limits assumed): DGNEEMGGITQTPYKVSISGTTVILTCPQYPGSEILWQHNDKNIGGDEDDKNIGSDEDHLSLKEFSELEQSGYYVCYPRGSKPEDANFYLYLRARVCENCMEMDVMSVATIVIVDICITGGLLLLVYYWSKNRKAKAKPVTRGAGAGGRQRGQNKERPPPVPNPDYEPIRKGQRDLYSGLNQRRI
Measurement name: Bmax (MFI)
Respond with a number, then the unit of measure.

Bmax (MFI) recorded for this binder, 2037-B10_Hc-N56D (antibody, human IgG1, lambda, V domains shown, human IgG1, lambda; also called SRP 2037 N56D; 2037-B10_VH-N56D) VH: EVQLVESGGGLVKPGGSLRLSCAASGFTFNKYAMNWVRQAPGKGLEWVARIRTKYDNYATYYADSVKDRFTISRDDSKNTAYLQMNSLKTEDTAVYYCVRHGNFGNSYISYWAYWGQGTPVTVSS VL: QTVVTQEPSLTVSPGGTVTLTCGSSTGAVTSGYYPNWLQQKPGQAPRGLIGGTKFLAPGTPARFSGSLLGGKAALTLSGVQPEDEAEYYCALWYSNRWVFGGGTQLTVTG , is 216 MFI

Bmax (MFI) measured on 2037-B10_Hc-K54D (antibody, human IgG1, lambda, V domains shown, human IgG1, lambda; also called SRP 2037 K54D; 2037-B10_VH-K54D) VH: EVQLVESGGGLVKPGGSLRLSCAASGFTFNKYAMNWVRQAPGKGLEWVARIRTDYNNYATYYADSVKDRFTISRDDSKNTAYLQMNSLKTEDTAVYYCVRHGNFGNSYISYWAYWGQGTPVTVSS VL: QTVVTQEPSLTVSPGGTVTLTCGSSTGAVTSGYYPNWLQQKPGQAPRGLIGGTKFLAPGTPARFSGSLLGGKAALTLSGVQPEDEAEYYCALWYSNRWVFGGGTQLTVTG = 857 MFI

Bmax (MFI) measured on 2037-B10_Hc-S107D (antibody, human IgG1, lambda, V domains shown, human IgG1, lambda; also called SRP 2037 S107D; 2037-B10_VH-S107D) VH: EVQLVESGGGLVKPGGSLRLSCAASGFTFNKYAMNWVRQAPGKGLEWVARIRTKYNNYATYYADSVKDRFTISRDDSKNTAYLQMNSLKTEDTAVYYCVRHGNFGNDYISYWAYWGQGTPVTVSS VL: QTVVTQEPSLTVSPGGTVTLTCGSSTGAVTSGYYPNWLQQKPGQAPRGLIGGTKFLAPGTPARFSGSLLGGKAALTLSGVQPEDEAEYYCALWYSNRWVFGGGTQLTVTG = 1060 MFI
